Values from ChEMBL document CHEMBL1140898

- assayRemarks: Cytotoxicity against mouse J774.G8 cells after 72 hrs by MTS assay
- Type: cell-based
# key: entry, value: pIC50
pIC50 here: minus log base 10 of the concentration, concentration in moles per litre.

compound: CC(C)c1ccc(S(=O)(=O)c2ccc(C(C)C)cc2)cc1
experimentalReadout: pIC50
readoutValue: 5.14
//
compound: C/C(=C/c1ccccc1)S(=O)(=O)c1ccccc1
experimentalReadout: pIC50
readoutValue: 3.69
//
compound: O=S(=O)(Nc1cccc(Cl)c1)c1ccccc1
experimentalReadout: pIC50
readoutValue: 4.50
//
compound: c1ccc(SSc2ccccc2)cc1
experimentalReadout: pIC50
readoutValue: 3.91

Let's switch to this compound now.
Exercise: Requested field: pIC50. Item: NC1CCC(S(=O)(=O)c2cc(O)c3ccccc3c2O)CC1 (configuration not stated)
Solution: 3.98

* * *

- assayRemarks: Therapeutic index, ratio of IC50 for mice (Mus musculus) J774.G8 cells to IC50 for chloroquine-resistant Plasmodium falciparum W2
- conditionSummary: J774.G8 cells versus Plasmodium falciparum W2
experimentalReadout: selectivity ratio

molecule: C/C(=C/c1ccccc1)S(=O)(=O)c1ccccc1
selectivity ratio: < 4.1
//
molecule: Cc1cccc(C)c1/C=C/S(=O)(=O)c1ccccc1
selectivity ratio: < 14

Exercise: Requested field: selectivity ratio. Item: c1ccc(SSc2ccccc2)cc1
Solution: 12.4

Exercise: Requested field: selectivity ratio. Item: COc1ncnc(NS(=O)(=O)c2ccc(N)cc2)c1OC
Solution: > 269

Exercise: Requested field: selectivity ratio. Item: Cc1cc(O)c(O)c(S(=O)(=O)c2ccc(N)cc2)c1
Solution: 1.2

Exercise: Requested field: selectivity ratio. Item: Cc1ccc(S(=O)(=O)c2cc(O)c3ccccc3c2O)cc1
Solution: > 1060

Exercise: Requested field: selectivity ratio. Item: O=S(=O)(c1cccc(S(=O)(=O)c2cc(O)ccc2O)c1)c1cc(O)ccc1O
Solution: > 169

Exercise: Requested field: selectivity ratio. Item: O=S(=O)(c1ccc(O)cc1)c1cc(Cl)ccc1O
Solution: 2.3

Exercise: Requested field: selectivity ratio. Item: Oc1ccc2ccccc2c1SSc1c(O)ccc2ccccc12
Solution: > 204

Exercise: Requested field: selectivity ratio. Item: Cc1ccc(S(=O)(=O)c2cc(O)ccc2O)cc1
Solution: > 29.6

Exercise: Requested field: selectivity ratio. Item: Cc1ccc(S/C=C/S(=O)(=O)Cc2ccccc2)cc1
Solution: 0.15

Exercise: Requested field: selectivity ratio. Item: CC(C)(C)S(=O)(=O)CC(=O)c1ccc(Cl)cc1Cl
Solution: > 19.3

Exercise: Requested field: selectivity ratio. Item: Nc1ccc(S(=O)(=O)c2cc(O)ccc2O)cc1
Solution: > 472

Exercise: Requested field: selectivity ratio. Item: CCCCS(=O)(=O)CCOC(=O)c1ccc([N+](=O)[O-])cc1
Solution: < 0.83

Exercise: Requested field: selectivity ratio. Item: CC(C)c1ccc(S(=O)(=O)c2ccc(C(C)C)cc2)cc1
Solution: 0.3

Exercise: Requested field: selectivity ratio. Item: CC(=O)Nc1ccc(S(=O)(=O)c2ccc(NC(=O)c3ccccc3O)cc2)cc1
Solution: > 77

Exercise: Requested field: selectivity ratio. Item: O=S(=O)(Nc1cccc(Cl)c1)c1ccccc1
Solution: < 0.62

Exercise: Requested field: selectivity ratio. Item: NC1CCC(S(=O)(=O)c2cc(O)c3ccccc3c2O)CC1 (stereo not given)
Solution: 5.3

Exercise: Requested field: selectivity ratio. Item: Cc1ccc(S(=O)(=O)c2ccccc2)cc1
Solution: 1.9

Exercise: Requested field: selectivity ratio. Item: Nc1nc(O)c2cc(S(=O)(=O)c3ccc4ccccc4c3)ccc2n1
Solution: > 2850
